Reference for the values: patent US20190201542A1

Molecular target: T1, human DLL3 (human, UniProt Q9NYJ7 27-492, limits assumed)
T1 construct: also called hDLL3; DLL3 protein
T1 sequence: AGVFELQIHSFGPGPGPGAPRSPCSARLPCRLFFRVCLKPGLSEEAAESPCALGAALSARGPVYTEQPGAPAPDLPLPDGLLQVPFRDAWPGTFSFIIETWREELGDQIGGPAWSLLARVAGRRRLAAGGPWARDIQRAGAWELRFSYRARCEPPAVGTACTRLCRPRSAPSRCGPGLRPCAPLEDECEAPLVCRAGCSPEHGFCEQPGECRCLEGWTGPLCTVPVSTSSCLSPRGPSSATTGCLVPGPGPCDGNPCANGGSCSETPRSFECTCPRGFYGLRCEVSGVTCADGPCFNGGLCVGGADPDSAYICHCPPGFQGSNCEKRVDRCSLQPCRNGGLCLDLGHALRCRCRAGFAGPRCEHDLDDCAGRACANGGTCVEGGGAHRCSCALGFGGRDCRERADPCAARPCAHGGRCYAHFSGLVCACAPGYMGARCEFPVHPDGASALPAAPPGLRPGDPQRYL
Assay: screen on immobilized hDLL3 or h293-hDLL3 cells
Measure: binding result

Binder | Endpoint Result
SC16.122 (antibody, V domains shown, murine mAb) VH: EVQLVESGGGLVKPGGSLKLSCAASGFTFSDYYMFWVRQTPEKRLEWVATISDGGSYTYFPDSVKGRFTISRDNAQNNLYLQMSSLKSEDTAMYYCARAGTLYAMDYWGQGTSVTVSS VL: DIVMTQSQKFMSTSVGDRVSVTCKASQNVGTNVAWYQQKPGQSPKVLIYSASYRYSGVPDRFTGSGSGTDFTLTISNVQSEDLAEFFCQQYNSYPLTFGGGTKLEIK | binds
SC16.133 (antibody, V domains shown, murine mAb) VH: QVQLKESGPGLVAPSQSLSITCTVSGFSLTNYAVHWVRQSPGKGLEWLGVIWSDGSTDYNAAFISRLSISKDNSKSQVFFKMNSLQADDTAMYYCARKKGGWFPWFAYWGQGTLVTVSA VL: SIVMTQTPKFLLVSAGDRVTITCKASQSVSNDVAWYQQKPGQSPKLLIYCASNRYTGVPDRFTGSGYGTDFTFTISTVQAEDLAVYFCQQDYSSPLTFGAGTKLELK | binds
SC16.73 (antibody, V domains shown, murine mAb) VH: QVQLQQSGAELMKPGASVKISCKANGYTFSSYWIEWLRQRPGHGLEWIGEILPGSDNSNYNEKFKGKATFTADTSSNTAYMQLSSLTSEESAVYYCTRGLRRDGSYYYVMEHWGQGTSVTVSS VL: DIQMTQSPSSLSASLGERVSLTCRASQDIGYSLNWLQQEPDGTIKRLIYATSSLDSGVPKRFSGSRSGSDYSLTISSLESEDFVDYYCLQYASSPWTFGGGTKLEIK | binds
